Kindly state Ratio IC50 for each of the entries shown.
# ASSAY_OVERVIEW: Selectivity index, ratio of IC50 for inhibition of tPA (unknown origin) using H-D-Ile-Pro-Arg-pNA-2HCl as substrate to IC50 for inhibition of human FXIa using p-Glu-Pro-Arg-pNA.HCl as substrate

Solved entries:
CC[C@@H](c1cc(-c2ccc(N)nc2F)ccn1)n1cc(OC)c(-c2cc(Cl)ccc2-n2cnnn2)cc1=O: > 1000
COc1cn(Cc2cc(-c3ccc(N)nc3)ccn2)c(=O)cc1-c1cc(Cl)ccc1-n1cnnn1: > 1000
CCC(c1cc(-c2ccc(N)nc2)ccn1)n1cc(OC)c(-c2cc(Cl)ccc2-n2cnnn2)cc1=O (racemic): > 1000
CC[C@@H](c1cc(-c2ccc(N)nc2)ccn1)n1cc(OC)c(-c2cc(Cl)ccc2-n2cnnn2)cc1=O: > 1000

# ---- query compound ----
Name the reported Ratio IC50 value associated with the compound COc1cn(Cc2cc(-c3ccc(N)nc3F)ccn2)c(=O)cc1-c1cc(Cl)ccc1-n1cnnn1
> 1000
